- experimental-target: sGC (Rattus norvegicus, UniProt P20595)
- Construct: Rat primary neurons were isolated from timed-pregnant female Sprague-Dawley (SD) rats; endogenous in cells
- Sequence (P20595 whole entry): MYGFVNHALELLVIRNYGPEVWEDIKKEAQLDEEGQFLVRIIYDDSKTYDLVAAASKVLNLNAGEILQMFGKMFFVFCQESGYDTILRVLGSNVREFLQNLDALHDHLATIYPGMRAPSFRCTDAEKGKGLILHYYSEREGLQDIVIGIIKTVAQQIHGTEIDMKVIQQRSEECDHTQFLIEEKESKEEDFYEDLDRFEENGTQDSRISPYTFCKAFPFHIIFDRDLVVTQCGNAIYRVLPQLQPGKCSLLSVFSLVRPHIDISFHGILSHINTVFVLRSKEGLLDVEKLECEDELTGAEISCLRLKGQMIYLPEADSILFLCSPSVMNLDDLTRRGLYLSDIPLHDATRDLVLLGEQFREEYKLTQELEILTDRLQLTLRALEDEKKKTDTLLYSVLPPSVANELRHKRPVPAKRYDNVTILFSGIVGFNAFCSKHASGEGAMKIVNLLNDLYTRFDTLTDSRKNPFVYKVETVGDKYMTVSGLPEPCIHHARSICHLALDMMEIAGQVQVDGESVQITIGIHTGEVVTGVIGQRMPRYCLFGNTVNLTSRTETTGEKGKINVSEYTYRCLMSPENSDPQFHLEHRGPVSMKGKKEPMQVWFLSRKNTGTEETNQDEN
- Sequence (P19686 whole entry partner): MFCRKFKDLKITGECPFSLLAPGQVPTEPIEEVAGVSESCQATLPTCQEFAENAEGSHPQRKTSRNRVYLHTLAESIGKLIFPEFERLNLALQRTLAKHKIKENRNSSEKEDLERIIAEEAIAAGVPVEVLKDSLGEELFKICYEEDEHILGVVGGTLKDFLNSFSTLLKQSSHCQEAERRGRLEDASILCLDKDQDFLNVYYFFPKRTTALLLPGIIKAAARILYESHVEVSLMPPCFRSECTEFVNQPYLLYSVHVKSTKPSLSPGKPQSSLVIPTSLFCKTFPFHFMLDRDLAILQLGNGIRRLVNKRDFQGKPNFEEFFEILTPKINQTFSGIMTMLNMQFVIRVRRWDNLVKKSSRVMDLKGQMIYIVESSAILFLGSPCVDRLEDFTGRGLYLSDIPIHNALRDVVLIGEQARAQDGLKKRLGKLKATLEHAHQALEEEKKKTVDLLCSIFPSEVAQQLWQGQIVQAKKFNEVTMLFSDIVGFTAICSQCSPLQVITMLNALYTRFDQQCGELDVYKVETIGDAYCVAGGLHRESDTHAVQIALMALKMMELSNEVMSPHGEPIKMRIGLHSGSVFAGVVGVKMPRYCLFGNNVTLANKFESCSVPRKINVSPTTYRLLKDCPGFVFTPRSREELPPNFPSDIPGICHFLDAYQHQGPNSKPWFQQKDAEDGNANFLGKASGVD
- experiment-notes: cGMP measurement in rat primary neurons (neuronal-based cell assay)
- measurement-parameters: rat primary neurons (Sprague-Dawley); 0.5 mM IBMX; test compound with fixed DETA (Diethylenetriamine NONOate); 20 min at 37° C.; cGMP by CatchPoint kit; read-out: sGC Neuron EC50
pEC50: −log10 of the molar value.
measured-attribute: pEC50

molecule: COc1cnc2c(Cc3cc(F)c(C)cc3F)nc(-c3ncc(Cl)c(O)n3)cn12 [Compound I-29]
experimental-target: sGC (Rattus norvegicus, UniProt P20595)
measured-attribute: pEC50
reading: 6.00 to 7.00
//
molecule: Cc1nc(-c2cn3c(C(C)O)cnc3c(Cc3cc(F)ccc3F)n2)nc(O)c1F (centres unmarked) [Compound I-31]
experimental-target: sGC (Rattus norvegicus, UniProt P20595)
measured-attribute: pEC50
reading: < 5.30
//
molecule: Cc1cc(F)c(Cc2nc(-c3nc(O)c(F)c(CF)n3)cn3ccnc23)cc1F [Compound I-45]
experimental-target: sGC (Rattus norvegicus, UniProt P20595)
measured-attribute: pEC50
reading: 6.00 to 7.00
//
molecule: CSc1cnc2c(Cc3cc(F)c(C)cc3F)nc(-c3nc(O)c(C)c(Br)n3)cn12 [Compound I-12]
experimental-target: sGC (Rattus norvegicus, UniProt P20595)
measured-attribute: pEC50
reading: < 5.30
//
molecule: CCOCc1nc(-c2cn3ncnc3c(Cc3cc(F)c(C)cc3F)n2)nc(O)c1F [Compound I-44]
experimental-target: sGC (Rattus norvegicus, UniProt P20595)
measured-attribute: pEC50
reading: < 5.30
//
molecule: COCc1nc(-c2cn3ccnc3c(Cc3cc(F)c(C)cc3F)n2)nc(O)c1F [Compound I-22]
experimental-target: sGC (Rattus norvegicus, UniProt P20595)
measured-attribute: pEC50
reading: 6.00 to 7.00
//
molecule: Cc1cc(F)c(Cc2nc(-c3ncc(F)c(O)n3)cn3c(CO)cnc23)cc1F [Compound I-35]
experimental-target: sGC (Rattus norvegicus, UniProt P20595)
measured-attribute: pEC50
reading: 5.30 to 6.00
//
molecule: N#Cc1cn2cc(-c3ncc(F)c(O)n3)nc(Cc3cc(F)c(F)cc3F)c2n1 [Compound I-3]
experimental-target: sGC (Rattus norvegicus, UniProt P20595)
measured-attribute: pEC50
reading: ≥ 7.00
